System: mouse pro-B cell BaF3
assay_comment: Cell growth, Cell Titer-Glo, 72 h: BaF3
Format: cell-based
measurement_parameters: BaF3 cells, 72 h, read-out: GI50
measured_quantity: GI50 (nM)

(a) C=CC(=O)N1CCC[C@@H](n2nc(-c3ccc(OCc4cc(F)ccc4F)c(Cl)c3)c3c(N)ncnc32)C1 [Compound 23]
(b) C=CC(=O)Nc1cc(Cn2nc(-c3ccc(F)c(Cl)c3)c3c(N)ncnc32)ccc1N(C)CCN(C)C [Compound 40]
Prompt line: Field: lower GI50 | Options: a / b Give the chosen item's label as your response.
Response line: b
(b: 1900 nM, a: 4300 nM)

(a) C=CC(=O)N1CCC[C@@H](n2nc(-c3ccc(OCc4cccc(F)c4)cc3F)c3c(N)ncnc32)C1 [Compound 24]
(b) C=CC(=O)Nc1cccc(Nc2nc(Nc3ccc(N4CCN(C(C)=O)CC4)cc3OC)ncc2C(F)(F)F)c1 [CO-1686, reference compound]
Prompt line: Of a and b , which one carries the higher reported GI50? Give the chosen item's label as your response.
Response line: a
(a: 1900 nM, b: 970 nM)

---

Tested on: mouse pro-B cell BaF3
assay_comment: Cell growth, Cell Titer-Glo, 72 h: BaF3
Assay type: cell-based
measurement_parameters: BaF3 cells, 72 h, read-out: GI50
measured_quantity: GI50 (µM)

# count of solved cases: 3
smiles_str: CN(C)C/C=C/C(=O)N1CCC[C@@H](n2nc(-c3ccc(F)c(Cl)c3)c3c(N)ncnc32)C1
GI50 (µM): 4.5
--
smiles_str: C=CC(=O)N1CCC[C@@H](n2nc(-c3ccc(OCc4ccccc4)c(F)c3)c3c(N)ncnc32)C1
GI50 (µM): 7.4
--
smiles_str: C=CC(=O)N1CCC[C@@H](n2nc(-c3ccc(OCc4cccc(F)c4)c(C)c3)c3c(N)ncnc32)C1
GI50 (µM): 2.5

(A) C=CC(=O)N1CCC[C@@H](n2nc(-c3ccc(OCc4nccs4)c(Cl)c3)c3c(N)ncnc32)C1
(B) C=CC(=O)N1CCC[C@@H](n2nc(-c3ccc(OCc4cccc(F)c4)c(F)c3)c3c(N)ncnc32)C1
Prompt line: Of A and B , which one carries the higher reported GI50? Give the chosen item's label as your response.
Response line: A

---

Test system: NCI-H3255 (expressing EGFR L858R mutant gene)
assay_comment: Cancer cell growth, Cell Titer-Glo, 72 h: NCI-H3255
Format: cell-based
measurement_parameters: Homo sapiens; NCI-H3255 cells, 72 h; read-out: GI50
measured_quantity: GI50 (nM)

# count of solved cases: 2
compound: C=CC(=O)N1CCC[C@@H](n2nc(-c3ccc(OCc4cccc(F)c4)c(OC)c3)c3c(N)ncnc32)C1
reading: 56

compound: C=CC(=O)N1CCC[C@@H](n2nc(-c3ccc(CN4CCN(C)CC4)cc3)c3c(N)ncnc32)C1
reading: 4900

(P) C=CC(=O)N1CCC[C@@H](n2nc(-c3ccc(OCc4ncc(C)c(OC)c4C)c(Cl)c3)c3c(N)ncnc32)C1
(Q) C=CC(=O)Nc1cc(Cn2nc(-c3ccc(F)c(Cl)c3)c3c(N)ncnc32)ccc1F
(R) C=CC(=O)Nc1cccc(Nc2nc(Nc3ccc(N4CCN(C(C)=O)CC4)cc3OC)ncc2C(F)(F)F)c1 [CO-1686, reference compound]
(S) C=CC(=O)N1CCC[C@@H](n2nc(-c3ccc(OCc4cccc(F)c4)c(C#N)c3)c3c(N)ncnc32)C1
Prompt line: Form: Sort by [GI50] Order [ ascending ] Would you mind listing the labels in the order asked for?
Response line: S, P, R, Q
(S: 28 nM, P: 44 nM, R: 250 nM, Q: 3800 nM)

(A) C=CC(=O)N1CCC[C@@H](n2nc(-c3ccc(F)c(Cl)c3)c3c(N)ncnc32)C1
(B) C=CC(=O)Nc1cc(Cn2nc(-c3ccc(F)c(Cl)c3)c3c(N)ncnc32)ccc1N(C)CCN(C)C
(C) C=CC(=O)N1CCC[C@@H](n2nc(-c3ccc(OCc4ccccc4)c(F)c3)c3c(N)ncnc32)C1
Prompt line: Order the 3 compounds from highest to lowest GI50. Would you mind listing the labels in the order asked for?
Response line: B, A, C

(1) C=CC(=O)N1CCC[C@@H](n2nc(-c3ccc(OCc4ccccc4F)c(Cl)c3)c3c(N)ncnc32)C1
(2) CN(C)C/C=C/C(=O)N1CCC[C@@H](n2nc(-c3ccc(F)c(Cl)c3)c3c(N)ncnc32)C1
Prompt line: Of 1 and 2 , which one carries the higher reported GI50? Give the chosen item's label as your response.
Response line: 2

(I) C=CC(=O)N1CCC[C@@H](n2nc(-c3ccc(OCc4ccccn4)c(C(F)(F)F)c3)c3c(N)ncnc32)C1
(II) C=CC(=O)N1CCC[C@@H](n2nc(-c3ccc(OCc4cccc(C)n4)c(Cl)c3)c3c(N)ncnc32)C1
Prompt line: Of I and II , which one carries the higher reported GI50? Give the chosen item's label as your response.
Response line: I

---

System: mouse pro-B cell BaF3
assay_comment: Cell growth, Cell Titer-Glo, 72 h: BaF3
Type: cell-based
measurement_parameters: BaF3 cells, 72 h, read-out: GI50
measured_quantity: GI50

# count of solved cases: 2
compound: C=CC(=O)N1CCC[C@@H](n2nc(-c3ccc(OCc4cccc(C)n4)c(Cl)c3)c3c(N)ncnc32)C1 [Compound 29]
system_under_test: mouse pro-B cell BaF3
GI50: > 10 µM
--
compound: C=CC(=O)N1CCC[C@@H](n2nc(-c3ccc(OCc4ncc(C)c(OC)c4C)c(Cl)c3)c3c(N)ncnc32)C1 [Compound 36]
system_under_test: mouse pro-B cell BaF3
GI50: > 10 µM

Continue with the next compound.
Prompt line: Requested field: GI50. Item: C=CC(=O)N1CCC[C@@H](n2nc(-c3ccc(F)c(Cl)c3)c3c(N)ncnc32)C1 [Compound 31]
Response line: > 10 µM

---

System: mouse pro-B cell BaF3
assay_comment: Cell growth, Cell Titer-Glo, 72 h: BaF3
Assay type: cell-based
measurement_parameters: BaF3 cells, 72 h, read-out: GI50
measured_quantity: GI50

# count of solved cases: 2
smiles_str: C=CC(=O)N1CCC[C@@H](n2nc(-c3ccc(OCc4cccc(F)c4)c(C#N)c3)c3c(N)ncnc32)C1
GI50: > 10 µM

smiles_str: C=CC(=O)N1CCC[C@@H](n2nc(-c3ccc(OCc4cccc(F)c4)nc3)c3c(N)ncnc32)C1
GI50: > 10 µM

Continue with the next compound.
Prompt line: Requested field: GI50. Item: C=CC(=O)N1CCC[C@@H](n2nc(-c3ccc(OCc4cccc(F)c4)c(OC)c3)c3c(N)ncnc32)C1
Response line: > 10 µM

---

Test system: mouse pro-B cell BaF3
assay_comment: Cell growth, Cell Titer-Glo, 72 h: BaF3
Format: cell-based
measurement_parameters: BaF3 cells, 72 h, read-out: GI50
measured_quantity: GI50

# count of solved cases: 2
molecule: C=CC(=O)N1CCC[C@@H](n2nc(-c3ccc(OCc4ccccn4)c(C(F)(F)F)c3)c3c(N)ncnc32)C1 [Compound 35]
system_under_test: mouse pro-B cell BaF3
measured_quantity: GI50
reading: > 10 µM
//
molecule: C=CC(=O)N1CCC[C@@H](n2nc(-c3ccc(OCc4ccc(C)nc4)c(Cl)c3)c3c(N)ncnc32)C1 [Compound 30]
system_under_test: mouse pro-B cell BaF3
measured_quantity: GI50
reading: > 10 µM

Prompt line: Can you look up GI50 on mouse pro-B cell BaF3 for C=CC(=O)N1CCC[C@@H](n2nc(-c3ccc(CN4CCN(C)CC4)cc3)c3c(N)ncnc32)C1 [Compound 20] ?
Response line: > 10 µM

---

Collected GI50 values appear next to each entry.
Test system: NCI-H3255 (expressing EGFR L858R mutant gene)
assay_comment: Cancer cell growth, Cell Titer-Glo, 72 h: NCI-H3255
Assay type: cell-based
measurement_parameters: Homo sapiens; NCI-H3255 cells, 72 h; read-out: GI50

smiles_str: C=CC(=O)N1CCC[C@@H](n2nc(-c3ccc(OCc4cccc(F)c4)cc3F)c3c(N)ncnc32)C1
GI50: < 0.3 nM
--
smiles_str: C=CC(=O)N1CCC[C@@H](n2nc(-c3ccc(OCc4cc(F)ccc4F)c(Cl)c3)c3c(N)ncnc32)C1
GI50: < 0.3 nM
--
smiles_str: C=CC(=O)N1CCC[C@@H](n2nc(-c3ccc(OCc4nccs4)c(Cl)c3)c3c(N)ncnc32)C1
GI50: < 0.3 nM
--
smiles_str: CCC(=O)N1CCC[C@@H](n2nc(-c3ccc(OCc4cccc(F)c4)c(Cl)c3)c3c(N)ncnc32)C1
GI50: > 10000 nM

Prompt line: Requested field: GI50. Item: C=CC(=O)N1CCC[C@@H](n2nc(-c3ccc(OCc4cccc(F)c4)nc3)c3c(N)ncnc32)C1
Response line: > 10000 nM
